Kindly state pEC50 for each of the entries shown.
Molecular target: UniProtKB Q13639
Experiment: Evaluation of agonistic activity in CHO-K1 cells expressing human 5-HT4(a) (GeneBIAzer HTR4-CRE-bla CHO-K1 cells, beta-lactamase fluorescence ratio, EC50 from 8 concentrations)
Counter-ions that a name gives are not always drawn.
Please express pEC50 as -log10 of the molar concentration.

Reported pEC50 for CCCc1cc(N2CCCCC2CC)nc(Nc2cccc(OC)c2)n1 (centres unmarked) [Example 102] : what is it?
9.33

Check CCCc1cc(N2CCC[C@@H](NC)C2)nc(Nc2ccc(F)c(C#N)c2)n1 [Example 282] too.
10.14

Another compound: CCCc1cc(N2CCC[C@@H](NC(=O)CO)C2)nc(Nc2ccc(C)c(C#N)c2)n1 [Example 244]
10.70

What do you have for CCCc1cc(N2CCNC[C@H]2C)nc(Nc2cccc(C#N)c2)n1 [Example 82, dihydrochloride] ?
10.02

Moving on to the next compound: CCCc1cc(N2CCC[C@@H](NCC)C2)nc(Nc2ccc(N)c([N+](=O)[O-])c2)n1 [Example 288]
11.34

Another compound to check: CCCc1cc(N2CCC[C@@H](NCC)C2)nc(Nc2cc(N)cc(C#N)c2)n1 [Example 292]
10.72

Try the compound CCCCc1cc(N2CCC[C@@H](N)C2)nc(Nc2ccc(C)c(C#N)c2)n1 [Example 293]
10.64

Next compound: CCCCc1cc(N2CCC[C@@H](NC(C)=O)C2)nc(Nc2ccc(F)c([N+](=O)[O-])c2)n1 [Example 234]
10.82

Same thing, different compound: CCCc1cc(N2CCC[C@@H](NC(C)=O)C2)nc(Nc2cc(N)cc(C(F)(F)F)c2)n1 [Example 278]
11.00

Please give the result for CCCc1cc(N2CCC[C@@H](N(CC)CC)C2)nc(Nc2ccc(F)c(C#N)c2)n1 [Example 270] too.
9.83

Another compound to check: CCCc1cc(N2CCOCC2)nc(Nc2cccc([N+](=O)[O-])c2)n1 [Example 83, hydrochloride]
9.44

Item: CCCc1cc(N2CCC[C@H](NCC(C)(C)C)C2)nc(Nc2ccc(C)c(C#N)c2)n1 [Example 158]
10.27

Try CCCCc1cc(N2CCC[C@@H](NC(C)=O)C2)nc(Nc2cccc(C#N)c2)n1 [Example 272, hydrochloride] next.
10.96

Thanks! And CCCc1cc(N2CCCCC2CCO)nc(Nc2cccc([N+](=O)[O-])c2)n1 (centres unmarked) [Example 141] ?
9.82

Also check CCCc1cc(N2CCC[C@@H](N)C2)nc(Nc2ccc(Cl)c(N)c2)n1 [Example 262]
10.68

Subsequent entry: CCCc1cc(N2CCCCC2CCO)nc(Nc2ccc(N)c(C#N)c2)n1 (centres unmarked) [Example 179]
10.57

Query CCCc1cc(N2CCCCC2CCO)nc(Nc2ccc(F)c(N)c2)n1 (centres unmarked) [Example 181] next
10.60

----------
Target: human 5-HT4(a) (Homo sapiens)
Sequence (Q13639 1-387 isoform Q13639-2): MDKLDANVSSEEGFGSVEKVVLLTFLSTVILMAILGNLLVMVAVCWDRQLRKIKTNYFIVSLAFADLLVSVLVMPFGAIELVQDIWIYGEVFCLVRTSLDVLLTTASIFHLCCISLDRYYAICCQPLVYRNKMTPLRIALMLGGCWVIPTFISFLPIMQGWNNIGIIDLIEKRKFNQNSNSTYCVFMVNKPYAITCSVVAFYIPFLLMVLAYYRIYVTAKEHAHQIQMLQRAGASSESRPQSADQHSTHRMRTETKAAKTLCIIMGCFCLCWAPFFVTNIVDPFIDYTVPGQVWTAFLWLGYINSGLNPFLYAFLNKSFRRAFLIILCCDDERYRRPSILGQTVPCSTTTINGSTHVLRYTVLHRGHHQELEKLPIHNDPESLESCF
Assay: Evaluation of agonistic activity in CHO-K1 cells expressing human 5-HT4(a) (GeneBIAzer HTR4-CRE-bla CHO-K1 cells, beta-lactamase fluorescence ratio, EC50 from 8 concentrations)
Structures can show the parent of a compound that is named as a salt.
reportedEndpoint: EC50 (nM)
Report only the number, with the unit nM understood.

Bench note: what EC50 did CCCCCN[C@@H]1CCCN(c2cc(CCC)nc(Nc3ccc(C)c(C#N)c3)n2)C1 show?
0.029

Now try CCCc1cc(N2CCCC3CCCCC32)nc(Nc2cccc(C#N)c2)n1 (stereo not shown) .
0.24

Then this molecule: CCCc1cc(N2CCOCC2)nc(Nc2ccc(F)c([N+](=O)[O-])c2)n1 [Example 84, hydrochloride]
0.27

Ok, now CCCc1cc(N2CCCCC2CCO)nc(Nc2ccc(C)c(N)c2)n1 (stereo not shown)
0.153

----------
Target: human 5-HT4(a) (Homo sapiens)
Test: Evaluation of agonistic activity in CHO-K1 cells expressing human 5-HT4(a) (GeneBIAzer HTR4-CRE-bla CHO-K1 cells, beta-lactamase fluorescence ratio, EC50 from 8 concentrations)
Where a name gives a salt, the structure may show the parent alone.
For each entry below, report its pEC50 value.
Bear in mind: pEC50 is minus log10 of a mol/L concentration; give just that figure.

Record request: pEC50 value, item CCCc1cc(N2CCCCC2CCO)nc(Nc2cccc(C#N)c2)n1 (stereo not shown) [Example 131]
9.92

Next up: CCCc1cc(N2CCCCC2CCO)nc(Nc2ccc(C)c(C#N)c2)n1 (stereo not shown) [Example 177]
10.31

Note, next up: CCCCc1cc(N2CCC[C@@H](NC)C2)nc(Nc2ccc(C)c(C(F)(F)F)c2)n1 [Example 332]
10.77

Item: CCCCc1cc(N2CCC[C@@H](NC)C2)nc(Nc2ccc(C)c(C)c2)n1 [Example 330]
10.07

Subsequent entry: CCCc1cc(N2CCC[C@@H](N)C2)nc(Nc2cc(N)cc(C(F)(F)F)c2)n1 [Example 256]
10.92

Also need CCCc1cc(N2CCNC[C@H]2C)nc(Nc2ccc(N)c([N+](=O)[O-])c2)n1 [Example 128] , thanks.
11.31

What do you have for CCCCc1cc(N2CCC[C@@H](N)C2)nc(Nc2ccc(C)c([N+](=O)[O-])c2)n1 [Example 339] ?
10.77

And what about the molecule CCCc1cc(N2CCCCC2CCO)nc(Nc2ccc3c(C)cc(=O)oc3c2)n1 (stereo not shown) [Example 146] ?
9.57

Further, for CCCCc1cc(N2CCC[C@@H](N)C2)nc(Nc2ccc(N)cc2)n1 [Example 352] ?
10.54

What would you report for CCCCc1cc(N2CCC[C@@H](NC(C)=O)C2)nc(Nc2ccc(Cl)c(N)c2)n1 [Example 242] ?
11.04

One more molecule: CCCc1cc(N2CCCCC2CCO)nc(Nc2ccc(F)c(C#N)c2)n1 (stereo not shown) [Example 178]
10.09

Same thing, different molecule: CCCc1cc(N2CCC[C@@H](NC)C2)nc(Nc2ccc(Cl)c(N)c2)n1 [Example 307]
11.40

Ok, now CCCCc1cc(N2CCC[C@@H](N)C2)nc(Nc2ccc(F)c(C#N)c2)n1 [Example 294]
9.97

Do the same for CCCc1cc(N2CCC[C@@H](N)C2)nc(Nc2cccc(C#N)c2)n1 [Example 221, dihydrochloride] please
9.91

Follow-up item: CCCc1cc(N2CCC[C@@H](NCC)C2)nc(Nc2ccc(F)c(N)c2)n1 [Example 289]
11.19

Also check CCCc1cc(N2CCC[C@@H](NCc3cccs3)C2)nc(Nc2ccc(C)c(C#N)c2)n1 [Example 214]
10.14

Now the same for CCCc1cc(N2CCC[C@H](N)C2)nc(Nc2ccc(C)c(C#N)c2)n1 [Example 150, dihydrochloride]
10.15

Thanks! And CCCc1cc(N2CCC[C@@H](NCC3CC3)C2)nc(Nc2ccc(F)c(N)c2)n1 [Example 227] ?
10.77

Another molecule to look at: CCCc1cc(N2CCCCC2CCO)nc(Nc2ccc(Cl)c([N+](=O)[O-])c2)n1 (stereo not shown) [Example 24]
10.59

// query: CCCc1cc(N2CCC[C@@H](N)C2)nc(Nc2ccc(F)c(N)c2)n1 [Example 259]
10.08

What would you report for CCCc1cc(N2CCOCC2)nc(Nc2ccc3cc[nH]c3c2)n1 [Example 77] ?
10.08

One more molecule: CCCCc1cc(N2CCC[C@@H](NCC(C)C)C2)nc(Nc2ccc(C)c(C#N)c2)n1 [Example 302]
10.72

Repeat with CCCc1cc(N2CCC[C@@H](NC)C2)nc(Nc2ccc(N)c(C(F)(F)F)c2)n1 [Example 285]
11.30

Next entry: CCCCc1cc(N2CCC[C@@H](N)C2)nc(Nc2ccc(C)c(C(F)(F)F)c2)n1 [Example 343]
10.47

Same for CCCc1cc(N2CCCCC2CCO)nc(Nc2ccc3cc[nH]c3c2)n1 (stereo not shown) [Example 74]
10.20

Same question, CCCCN[C@H]1CCCN(c2cc(CCC)nc(Nc3ccc(C)c(C#N)c3)n2)C1 [Example 154] this time
10.39

Note, next up: CCCc1cc(N2CCCC3CCCCC32)nc(Nc2ccc(F)c([N+](=O)[O-])c2)n1 (stereo not shown) [Example 189]
9.49

And CCCN[C@@H]1CCCN(c2cc(CCC)nc(Nc3ccc(C)c(C#N)c3)n2)C1 [Example 206] ?
11.06

Moving on to CCCc1cc(N2CCC[C@H](NCc3ccc(O)cc3)C2)nc(Nc2ccc(C)c(C#N)c2)n1 [Example 164]
10.12

Try CCCc1cc(N2CCCCC2CC)nc(Nc2cccc(C#N)c2)n1 (stereo not shown) [Example 111] next.
10.04

Same question for CCCc1cc(N2CCC[C@@H](NC(=O)CO)C2)nc(Nc2cc(N)cc(C(F)(F)F)c2)n1 [Example 247] please.
10.64

CCCCc1cc(N2CCC[C@@H](N)C2)nc(Nc2ccc(N)c([N+](=O)[O-])c2)n1 [Example 337, dihydrochloride] , same question.
11.22

Do the same for CCCc1cc(N2CCC[C@@H](NC(=O)CO)C2)nc(Nc2ccc(F)c(N)c2)n1 [Example 250] please
10.57

Now give it for CCCc1cc(N2CCCCC2CCO)nc(Nc2ccc(C)c([N+](=O)[O-])c2)n1 (stereo not shown) [Example 174] too.
10.41
